All values here come from patent EP4480943A1.

assay: Size and charge of LNPs by DLS (Malvern NanoZS); type: physicochemical; conditions: mRNA(GFP) LNPs, total lipid 3.75 mM, N/P 6
reported.property: Size (nm)
Answer in nm, number only, no unit symbol.

Look over these answered cases.
{"compound": "CCCCC/C=C\\C/C=C\\CCCCCCCCNC(=O)CCC(NC(=O)CCCN(C)C)C(=O)NCCCCCCCC/C=C\\C/C=C\\CCCCC (stereo not shown) [XIV]", "uom": "nm", "quantitative.readout": 115}
{"compound": "CCCCCCCC/C=C\\CCCCCCCCNC(=O)CCC(NC(=O)CCC(=O)NCCSSCCNC(=O)CN(C)C)C(=O)NCCCCCCCC/C=C\\CCCCCCCC (stereo not shown) [VI]", "uom": "nm", "quantitative.readout": 117}

The compound listed as CCCCCCC/C=C\CCCCCCCCNC(=O)CCC(NC(=O)CCCN(C)C)C(=O)NCCCCCCCC/C=C\CCCCCCCC (stereo not shown) [II] shows Size equal to 113

What the record says about CCCCC/C=C\C/C=C\CCCCCCCCOC(=O)CCC(NC(=O)CN(C)C)C(=O)OCCCCCCCC/C=C\C/C=C\CCCCC (stereo not shown) [X] : Size is 141
